Parameter IC50: see the listing below.
# Test system: thrombin
# test.name: IC50 values: percentage reversal of TRI 50c inhibition of thrombin by hydroxy fatty acid
# Type: biochemical
# condition.details: thrombin 33.3 ng/ml, TRI 50c 300 nM final, 30 minutes at 37° C., S2238

{"molecule": "COC(=O)[C@H]1CC2CCC1[C@@H](O)C2 (stereo in doubt) [reference compound]", "IC50": "> 30 µM"}
{"molecule": "CCCCC/C=C\\C=C\\[C@H](CCCCCCCC(=O)O)OO [9(S)-HpODE]", "IC50": "> 30 µM"}
{"molecule": "CCCCC/C=C\\C/C=C\\C=C\\C(O)C/C=C\\CCCC(=O)O (racemic) [(+/−)8-HETE]", "IC50": "> 30 µM"}
{"molecule": "CCCCC/C=C\\C=C\\[C@H](O)CCCCCCCC(=O)O [9(R)-HODE]", "IC50": "> 30 µM"}

The molecule identified as CC1(C)[C@@]2(C)CC[C@]1(C)[C@H](CC(=O)O)[C@H]2O [(−)-Isoborneolacetic Acid, reference compound] registered its IC50 at > 30 µM

The molecule identified as CCCCC/C=C\C=C\[C@@H](O)CCCCCCCC(=O)O [9(S)-HODE] registered its IC50 at 12 µM

The molecule identified as CCCCC/C=C\C/C=C\C/C=C\C=C\[C@H](CCCC(=O)O)OO [5(S)-HPETE] registered its IC50 at 25 µM

The molecule identified as CC/C=C\C/C=C\C/C=C\C=C\[C@@H](O)C/C=C\CCCC(=O)O [8(S)-HEPE] registered its IC50 at 14 µM

The molecule identified as CCCCC/C=C\C/C=C\CC(O)C(O)C/C=C\CCCC(=O)O (racemic) [(+/−)8,9-DIHETRE] registered its IC50 at > 30 µM

The molecule identified as CCCCC/C=C\C/C=C\C=C\[C@@H](O)CCCCCCC(=O)O [8(S)-HETRE] registered its IC50 at 16 µM

The molecule identified as CCCCC/C=C\C/C=C\C/C=C\C=C\C(O)CCCC(=O)O (racemic) [(+/−)5-HETE] registered its IC50 at > 30 µM

The molecule identified as CCCCC/C=C\C=C\C(O)CCCCCCCCCC(=O)O (racemic) [(+/−)11-HEDE] registered its IC50 at > 30 µM

The molecule identified as C[C@H]1CCC/C=C/C2C[C@H](O)CC2[C@H](O)/C=C/C(=O)O1 (single isomer, unassigned; (+)) [(+)-Brefeldin A, reference compound] registered its IC50 at > 30 µM

The molecule identified as CCCCC/C=C\C=C\[C@@H](O)CCCCCCCC(=O)OC1CC[C@@]2(C)C(=CCC3C4CCC(C(C)CCCC(C)C)[C@@]4(C)CCC32)C1 (stereo partly drawn) [9(S)-HODE cholesteryl ester] registered its IC50 at 4.4 µM

The molecule identified as CC/C=C\C/C=C\C=C\[C@@H](O)CCCCCCCC(=O)O [9(S)-HOTRE] registered its IC50 at > 30 µM
